B1: LOC100129726 (parent)
chain: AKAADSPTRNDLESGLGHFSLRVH

Variants of: B1
Test: protein stability index of a GFP-peptide fusion (GPS, HEK-293T) (PSI 1-6); higher = more stable;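 further: lentivirally expressed fusions sorted by FACS into six bins by GFP to DsRed ratio, PSI derived from sequencing read proportions per bin multiplied by bin number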
Settings: c terminus: a fixed tail appended
Decision: protein stability index compared against 3; not below it gives Met, below it gives Not met.

Decide: protein stability index of G15F >= 3? Not met

Decide: protein stability index of A3G >= 3? Met

Decide: protein stability index of L16K >= 3? Met

Decide: protein stability index of D11E >= 3? Met

Decide: protein stability index of R22Q >= 3? Not met

Decide: protein stability index of D5A >= 3? Not met

Decide: protein stability index of S6M >= 3? Not met
